Target entity: HLA-A1 (A*0101) (Homo sapiens, UniProt P04439, A114D/A174V/A182V/D101N/D185E/E176A/E190D/L180R/Q94H/R68K/S129P/T187R/V100A/V91M/W191G)
Assay notes: biochemical
Type: binding
pIC50: −log10 of the molar value. No end group written: not given here.
Lab note: compare pIC50 against 8. Equal or greater, write Satisfied. Smaller, write Not satisfied.

Sequence	Class name
LQDKILDHY [Peptide 1580.27]	Not satisfied
SIDWRLRRY [Peptide 9018.0020]	Not satisfied
TTEPEAQNTTY [Peptide 9012.0166]	Satisfied
LADQLIHLY [Peptide 9015.0038]	Satisfied
ITKIQNFRVY [Peptide 9015.0173]	Not satisfied
YSKVSEFRWY [Peptide 78.0009]	Not satisfied
LYPEPTDLY [Peptide 78.0354]	Not satisfied
RTTQLFEDNY [Peptide 9012.0149]	Not satisfied
YTDGPGVRY [Peptide 9018.0003]	Satisfied
MSMSQWIKY [Peptide 1580.05]	Not satisfied
ATDVSHRGLY [Peptide 1593.10]	Not satisfied
QTKGLGISY [Peptide 9015.0031]	Not satisfied
HMARELHPEY [Peptide 9015.0176]	Not satisfied
WTSTDNKNY [Peptide 1580.31]	Not satisfied
LFDQLIHMHY [Peptide 9018.0033]	Not satisfied
GTDPACYEF [Peptide 9012.0135]	Not satisfied
STEWRLRRY [Peptide 9018.0019]	Not satisfied
DLDDQLIHLY [Peptide 9018.0022]	Satisfied
